Each recorded value in this set is attributed to patent US11866405B2.

target: human recombinant IRAK4 protein (Homo sapiens (Human), UniProt Q9NWZ3); test: IRAK4 enzyme assay (mass spectrometry readout); conditions: 3 mM ATP, 0.2 nM enzyme; geometric mean of at least n=2, * single experiment
Sequence (Q9NWZ3 whole entry): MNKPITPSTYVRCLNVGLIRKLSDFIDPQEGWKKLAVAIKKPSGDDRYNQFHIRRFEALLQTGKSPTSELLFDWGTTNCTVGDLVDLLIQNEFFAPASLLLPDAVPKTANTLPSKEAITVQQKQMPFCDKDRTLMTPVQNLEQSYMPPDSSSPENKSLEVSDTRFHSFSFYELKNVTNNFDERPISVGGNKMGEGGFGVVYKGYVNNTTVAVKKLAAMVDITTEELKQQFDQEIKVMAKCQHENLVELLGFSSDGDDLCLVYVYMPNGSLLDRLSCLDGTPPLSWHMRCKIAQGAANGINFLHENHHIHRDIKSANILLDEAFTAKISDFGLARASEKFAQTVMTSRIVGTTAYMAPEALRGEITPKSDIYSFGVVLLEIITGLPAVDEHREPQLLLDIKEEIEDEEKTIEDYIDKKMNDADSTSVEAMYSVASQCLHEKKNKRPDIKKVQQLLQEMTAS
testReadout: IC50 (nM)

1. COc1cc2nn([C@H]3CC[C@H](N(C)C(=O)[C@H](C)O)CC3)cc2cc1C(=O)Nc1cnn2cccnc12 :: 1.3
2. O=C(Nc1cnn2cccnc12)c1cc2cn([C@H]3CCC[C@H](O)C3)nc2cc1OC1CC1 (single isomer, unassigned) [Example 20] :: 0.7
3. COc1cc2nn([C@H]3CC[C@@]4(CC3)CC(=O)N(C)C4)cc2cc1C(=O)Nc1cnn2cccnc12 :: 0.2
4. COc1cc2nn([C@@H]3CC[C@@](C)(O)C[C@H]3C)cc2cc1C(=O)Nc1cnc2cccnn12 :: 0.4
5. COc1cc2nn([C@@H]3CC[C@H](O)[C@H](C)C3)cc2cc1C(=O)Nc1cnc2cccnn12 (single isomer, unassigned) [Example 76] :: 2.3
6. COc1cc2nn([C@@H]3CC[C@](C)(O)C[C@H]3C)cc2cc1C(=O)Nc1cnc2cccnn12 :: 1.6
7. COc1cc2nn([C@H]3CC[C@H](O)CC3)cc2cc1C(=O)Nc1cnc2cccnn12 :: 2.8
